System: Toxoplasma gondii RH tachyzoites
Test: % growth inhibition vs DMSO (48 h luciferase); higher = more inhibition
Settings: 10 µM
Answer each item with its documented % growth inhibition.
Unit % implied. Number only.

Task item: Entry under review: "Cc1cc(NCCN2CCCCC2)c2ccc3ccccc3c2n1" . Reported % growth inhibition?
Reply: 78.3

Task item: Entry under review: "CCN(CC)CCCNc1ccnc2cc3ccccc3cc12" . Reported % growth inhibition?
Reply: 29.2

Task item: Entry under review: "COc1ccccc1CNC(=O)CCn1c(=O)[nH]c2ccccc2c1=O" . Reported % growth inhibition?
Reply: 79.9

Task item: Entry under review: CC(C)(C)c1ccc(C2CC3=Nc4ccccc4N(C(=O)c4ccccc4Cl)C(c4ccc(F)cc4)C3=C(O)C2)cc1 (stereo not given) . Reported % growth inhibition?
Reply: 68.4

Task item: Entry under review: CC(NCc1ccccc1)c1cc(Cl)ccc1O (stereo not given) . Reported % growth inhibition?
Reply: 14.9

Task item: Entry under review: "CC(C)(C)c1ccc(C(=O)Nc2nc3ccccc3s2)cc1" . Reported % growth inhibition?
Reply: 12.1

Task item: Entry under review: "CCOC(=O)c1cn(CC)c2cc(N(C)CCc3ccc(OC)c(OC)c3)c(F)cc2c1=O" . Reported % growth inhibition?
Reply: 97.7

Task item: Entry under review: "COc1cc(C(=O)ON=C(N)Cc2cccc3ccccc23)cc(OC)c1OC" . Reported % growth inhibition?
Reply: 99

Task item: Entry under review: "Cc1ccc(S(=O)(=O)c2c(COC(=O)c3cccc(C)c3)c(-c3ccccc3)nn2C)cc1" . Reported % growth inhibition?
Reply: 99.4

----------
Answer each item with its documented EC50 growth inhibition.
Biological target: Toxoplasma gondii RH tachyzoites
Assay: EC50 growth inhibition (48 h luciferase)
Don't forget the unit after the number, please.

Task item: Entry under review: "CCOc1ccc(/C=C/c2nc(=O)c3ccccc3o2)cc1" . Reported EC50 growth inhibition?
Reply: 21.7 nM

Task item: Entry under review: "Cc1cc(N2CCCC2)nc(Nc2ccc(NC(=O)CCc3ccccc3)cc2)n1" . Reported EC50 growth inhibition?
Reply: 102 nM

Task item: Entry under review: "Cc1ccc(Nc2nc(N)c3ccccc3n2)cc1Cl" . Reported EC50 growth inhibition?
Reply: 1980 nM

Task item: Entry under review: "CCCCNc1nc(NC(C)(C)C)nc(NC(C)(C)C)n1" . Reported EC50 growth inhibition?
Reply: 603 nM

Task item: Entry under review: Cc1sc(NC(=O)c2ccco2)c(C(c2cccnc2)N2CCC(Cc3ccccc3)CC2)c1C (stereo not drawn) . Reported EC50 growth inhibition?
Reply: 1120 nM

Task item: Entry under review: "COCCNC(=O)c1ccc(OC2CCN(Cc3ccc(F)c(F)c3)CC2)c(Cl)c1" . Reported EC50 growth inhibition?
Reply: 270 nM

Task item: Entry under review: "CCOc1ccc2nc(C)cc(Nc3ccc(N(C)C)cc3)c2c1" . Reported EC50 growth inhibition?
Reply: 1440 nM

Task item: Entry under review: "CCCc1c(C)nc2ccccc2c1O" . Reported EC50 growth inhibition?
Reply: 803 nM

Task item: Entry under review: "CC(C)(C)C(=O)Nc1ccc(C(=O)Nc2cccc(-c3nc4ccccc4[nH]3)c2)cc1" . Reported EC50 growth inhibition?
Reply: 2080 nM

Task item: Entry under review: "CCn1nc(-c2ccc(C(=O)OC)cc2)nc2c(=O)n(C)c(=O)nc1-2" . Reported EC50 growth inhibition?
Reply: 2200 nM

Task item: Entry under review: "COc1ccc(Nc2nc(NCc3ccccc3)c3ccccc3n2)cc1" . Reported EC50 growth inhibition?
Reply: 763 nM

Task item: Entry under review: O=C1c2ccccc2C2=Nc3ccccc3SC(c3cccc(F)c3)C12 (stereo not drawn) . Reported EC50 growth inhibition?
Reply: 916 nM

Task item: Entry under review: "COc1ccccc1NC1=C(N2CCCCC2)C(=O)c2ccccc2C1=O" . Reported EC50 growth inhibition?
Reply: 4950 nM

Task item: Entry under review: Cc1sc(NC(=O)c2ccccc2)c(C(c2cccs2)N2CCN(c3ccccc3)CC2)c1C (stereo not drawn) . Reported EC50 growth inhibition?
Reply: 550 nM

Task item: Entry under review: "COc1cc(CNCCc2ccc(Cl)cc2)cc(OC)c1O" . Reported EC50 growth inhibition?
Reply: 5990 nM

Task item: Entry under review: "COc1ccc(-c2nc(N3CCN(C(=O)C4CCCCC4)CC3)c3c4c(sc3n2)CCCC4)cc1" . Reported EC50 growth inhibition?
Reply: 3080 nM

Task item: Entry under review: "COc1cc(C(=O)Nc2ccc(-c3nc4ccccc4[nH]3)cc2)cc(OC)c1OC" . Reported EC50 growth inhibition?
Reply: 4730 nM

Task item: Entry under review: "CCN(CC)c1cc(C)c2cc(NC(=O)c3cccc(OC)c3)ccc2n1" . Reported EC50 growth inhibition?
Reply: 1810 nM

Task item: Entry under review: "O=C(Nc1ccc(F)c(Cl)c1)Nc1ccc(Cl)c(Cl)c1" . Reported EC50 growth inhibition?
Reply: 346 nM

Task item: Entry under review: "CC(C)OCc1cc(CN2CCN(c3cccc(Cl)c3)CC2)c(O)c2ncccc12" . Reported EC50 growth inhibition?
Reply: 1690 nM

Task item: Entry under review: "COc1cccc(Nc2nc(NCCO)c3ccccc3n2)c1" . Reported EC50 growth inhibition?
Reply: 1090 nM

Task item: Entry under review: "Cc1cc(Nc2ccc(OCc3ccccc3)cc2)nc2cc(O)ccc12" . Reported EC50 growth inhibition?
Reply: 2850 nM

Task item: Entry under review: OC(CNCC1CCCO1)Cn1c2ccc(Cl)cc2c2cc(Cl)ccc21 (stereo not drawn) . Reported EC50 growth inhibition?
Reply: 4460 nM
